- assay_explanation: inhibitors of Toxoplasma growth in IFN-γ-primed HeLa – cell-based, ME49Luc, luciferase, 72 h, dose response (AID 1259418)
- run_conditions: T. gondii ME49Luc in IFN-y HeLa, active compounds read low, -100% = high-dose IFN-γ control wells; at 19.5 µM unless noted
Screen size: about 3,400 compounds; about 840 (25%) were called active. Roughly 11% stayed inconclusive and do not appear here. The list is a sample of the results. Results with a measured potency or affinity are listed apart.
measure: max activity

>>> meas_value("COc1ccc2c(c1)NC1(CCN(C(=O)Cc3ccccc3)CC1)c1cccn1-2")
"5.44% [at 0.35 µM] (inactive)"
>>> meas_value("CCOc1ccc(-c2nc(CSc3nc4c(c(=O)[nH]3)CN(C(C)C)CC4)c(C)o2)cc1OC")
"21% [at 2.6 µM] (inactive)"
>>> meas_value("CCOC(=O)CSC1=Nc2ccccc2C2=NC(CC(=O)NCc3ccco3)C(=O)N12 (stereo not given)")
"21.4% [at 1.35 µM] (inactive)"
>>> meas_value("COc1ccc(CNC(=O)CC2N=C3c4ccccc4N=C(SCc4ccccc4Cl)N3C2=O)cc1 (stereo not given)")
"18.1% [at 0.68 µM] (inactive)"
>>> meas_value("CCOc1ccc(-c2nc3c(s2)CN(S(=O)(=O)c2cccc(Cl)c2C)CC3)cc1")
"15.9% [at 10 µM] (inactive)"

Here are 3 molecules. What values of max activity were reported for them?
1. O=C(CCC1N=C2c3ccccc3N=C(SCc3ccccc3F)N2C1=O)NCc1ccco1 (stereo not given)
2. Fc1ccc(CSc2nc(NCc3ccco3)c3ccccc3n2)cc1
3. Fc1cccc(-c2ccc(C3[C@H]4CNC[C@@H]3N4Cc3cncnc3)cc2)c1 (stereo not given in full)

1. 61.5% [at 10 µM] (inactive)
2. -10.7% [at 2.6 µM] (inactive)
3. 50.5% (inactive)

Fill in max activity for each of the 6 molecules listed.
1. COc1ccc(-c2nc(Nc3cccc(Cl)c3C)c3ccccc3n2)cc1
2. Cc1ccc(-c2coc(-c3ccc(NC(=O)Nc4ccc5c(c4)OCO5)cc3)n2)c(C)c1
3. CCOc1cccc(-c2noc(-c3nnn(Cc4nc(-c5ccc(C)cc5)oc4C)c3C)n2)c1
4. O=C(C1CCOCC1)N1CC(=O)N2[C@@H](CO)[C@@H](c3ccc(C#CC4CCCCC4)cc3)[C@@H]2C1
5. COc1ccccc1CNC(=O)CC1N=C2c3ccccc3N=C(SCc3ccc(Cl)cc3)N2C1=O (stereo not given)
6. Cc1nc(OCC(=O)Nc2ccc(C(C)C)cc2)c2ccccc2n1

25.3% (inactive)
49.1% (inactive)
-11.7% [at 0.68 µM] (inactive)
25.9% [at 10 µM] (inactive)
28% [at 5 µM] (inactive)
15.7% [at 1.35 µM] (inactive)

Please give the measured max activity for this molecule: N#C[C@H]1N[C@@H](CO)[C@H]1c1ccc(C#CC2CCCCC2)cc1
49.7% (inactive)

* * *

- assay_explanation: inhibitors of Toxoplasma growth in IFN-γ-primed HeLa – cell-based, ME49Luc, luciferase, 72 h, dose response (AID 1259418)
- run_conditions: T. gondii ME49Luc in IFN-y HeLa, active compounds read low, -100% = high-dose IFN-γ control wells; at 19.5 µM unless noted
Out of some 3,400 compounds screened, about 840 (25%) were called active. About 11% were inconclusive and are not listed. Only a sample is shown. Measured potencies and affinities stand elsewhere.
Please respond with reported max activity for every item in the list.

Examples from the recorded data:
>>> meas_value("O=S(=O)(c1ccccc1F)N1CC[C@H]2[C@H](CO)Nc3ccc(C4=CCCCC4)cc3[C@H]21")
"39.3% [at 10 µM] (inactive)"
>>> meas_value("COCC12CCCOC1CCN(S(=O)(=O)c1cn(C)cn1)C2 (centres undefined)")
"18.3% (inactive)"
>>> meas_value("O=S(=O)(c1ccccc1F)N1CC[C@@H]2[C@@H](CO)Nc3ccc(C4=CCCCC4)cc3[C@@H]21")
"37.4% [at 10 µM] (inactive)"

Then there is this compound:
For O=C(C[C@H]1CC[C@@H]2[C@H](COC[C@H](O)CN2Cc2cc(F)ccc2F)O1)NCc1ccc(Oc2ccccc2)cc1 , what is its reported max activity?
17.5% [at 5 µM] (inactive)
